meta.source: PubChem BioAssay (NCI)

Test system: NCI-H226 lung
testName: NCI tumour cell line growth inhibition, 48 h
parameterMeasured: TGI

In [3]: df
Out[3]:
                                   compound  valuereported
0              CN(CCO)/N=N/c1[nH]ncc1C(N)=O       > 100 µM
1  c1ccc(C2[C@@H]3CCCc4ccccc4C3=NN2c2ccccc2)cc1 (stereo partly specified)       > 100 µM
2  NC(=O)N/N=C(/c1nc2ccc([N+](=O)[O-])cc2[nH]c1=O)C(O)c1ccco1 (stereo unspecified)       > 100 µM
3                         N=C(N)SCCc1ccccn1       > 100 µM
4  CCCCNC(=S)Nc1nc(C(=O)NNC(=O)c2ccccc2)cs1        67.8 µM
5  Cc1cc(C)c(N=Nc2c(O)c(S(=O)(=O)O)cc3cc(S(=O)(=O)O)ccc23)cc1C       > 100 µM
